- tested system: T1, 4H883-bN
- T1 chain: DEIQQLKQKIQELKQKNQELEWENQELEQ
- assay name: two-hybrid library CCNG1;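 note: natural log of median RNA to DNA barcode read ratio; higher means stronger binding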
readout label: interaction score
# print the numeric value only

For the binder shown here, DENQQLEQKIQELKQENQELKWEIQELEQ [4H1369-bN] , give the reported interaction score.
-1.19

For the binder shown here, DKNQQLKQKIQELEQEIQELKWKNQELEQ [4H3855-bN] , give the reported interaction score.
-0.0328

For the binder shown here, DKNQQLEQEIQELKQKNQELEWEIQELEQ [4H3185-bN] , give the reported interaction score.
-1.12

For the binder shown here, DEIQQLEQKNQELKQEIQELKWKIQELKQ [4H462-bN] , give the reported interaction score.
-1.4

For the binder shown here, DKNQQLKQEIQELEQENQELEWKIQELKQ [4H3606-bN] , give the reported interaction score.
-1.5

Origin of the recorded values: paper PMC10397247
